B1: EEHEE_rd4_0469 (parent)
chain: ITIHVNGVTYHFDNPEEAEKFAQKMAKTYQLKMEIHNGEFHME

# Variants of: B1
# assay notes: folding stability dG (cDNA display proteolysis); higher = more stable
# recorded conditions: PBS, room temperature
Record Y whenever folding stability dG is at 1 kcal/mol or higher; record N when lower.

Reference set, count: 4
Query: Given "F21Y" , state whether its folding stability dG is at least 1 kcal/mol.
Result: N

Query: Is it the case that "H4Y" has folding stability dG reaching or exceeding 1 kcal/mol?
Result: Y

Query: # bool: folding stability dG of "G38C" >= 1 kcal/mol
Result: Y

Query: Could you please find out whether "K27L" has folding stability dG that meets 1 kcal/mol or exceeds it?
Result: Y

Others:
Query: Decide: is the reported value of folding stability dG for "I3N" equal to or greater than 1 kcal/mol?
Result: N

Query: Answer whether folding stability dG of "A26H" is greater than or equal to 1 kcal/mol.
Result: N

Query: Does the reported folding stability dG for "I3M" fall at or above the 1 kcal/mol mark?
Result: N

Query: Test whether the variant "I3V" records folding stability dG of 1 kcal/mol or higher.
Result: Y

Query: Evaluate "E43G" : folding stability dG at minimum 1 kcal/mol?
Result: Y

Query: Item "Q23S" with folding stability dG of 1 kcal/mol or above?
Result: Y

Query: Does folding stability dG meet or surpass 1 kcal/mol for "K32Y" ?
Result: Y

Query: Check this variant for folding stability dG at or above 1 kcal/mol: "K20R"
Result: Y

Query: Determine whether measured folding stability dG meets or exceeds 1 kcal/mol for "Y29G"
Result: Y

Query: hey, is folding stability dG for this one >= 1 kcal/mol? "G38E"
Result: N
